The compounds listed here are annotated with their pIC50.
target: Acetylcholinesterase (Electrophorus electricus); test: Inhibition of electric eel AChE
pIC50: −log10 of the molar value.
reported_property: pIC50

>>> number("CN(C)CCC(=O)Nc1ccc2c(c1)C(=O)c1cccc3ccnc-2c13")
7.47
>>> number("O=C(CCCN1CCCC1)Nc1ccc2c(c1)C(=O)c1cccc3ccnc-2c13")
7.92
>>> number("CCN(CC)CCC(=O)Nc1ccc2c(c1)C(=O)c1cccc3ccnc-2c13")
7.94
>>> number("CN(C)CCNCCC(=O)Nc1ccc2c(c1)C(=O)c1cccc3ccnc-2c13")
6.92
>>> number("C[N+](C)(C)CCC(=O)Nc1ccc2c(c1)C(=O)c1cccc3ccnc-2c13")
8.32

###

# reported pIC50; entries follow
molecular target: Butyrylcholinesterase (Equus caballus, UniProt Q9N1N9); experiment: Inhibition of equine serum BuChE
Sequence (Q9N1N9 whole entry): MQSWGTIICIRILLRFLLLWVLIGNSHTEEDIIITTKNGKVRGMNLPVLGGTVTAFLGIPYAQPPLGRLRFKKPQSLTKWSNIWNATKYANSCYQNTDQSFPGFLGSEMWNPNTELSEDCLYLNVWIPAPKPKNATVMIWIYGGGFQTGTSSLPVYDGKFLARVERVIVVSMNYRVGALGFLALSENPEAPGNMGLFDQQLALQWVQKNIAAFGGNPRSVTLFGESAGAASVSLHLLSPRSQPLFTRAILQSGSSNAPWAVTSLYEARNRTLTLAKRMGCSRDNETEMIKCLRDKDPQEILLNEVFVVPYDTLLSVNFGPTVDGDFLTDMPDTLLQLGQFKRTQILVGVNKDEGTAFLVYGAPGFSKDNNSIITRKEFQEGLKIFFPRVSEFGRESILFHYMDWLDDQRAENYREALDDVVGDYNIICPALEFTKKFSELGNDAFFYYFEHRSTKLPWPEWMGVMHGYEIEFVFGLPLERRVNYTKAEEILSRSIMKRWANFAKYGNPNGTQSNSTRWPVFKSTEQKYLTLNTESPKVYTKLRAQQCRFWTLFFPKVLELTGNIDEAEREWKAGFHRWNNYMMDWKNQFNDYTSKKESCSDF
pIC50: −log10 of the molar value.
reported_property: pIC50

>>> number("CC[N+](C)(CC)CCCC(=O)Nc1ccc2c(c1)C(=O)c1cccc3ccnc-2c13")
5.28
>>> number("CN(C)CCC(=O)Nc1ccc2c(c1)C(=O)c1cccc3ccnc-2c13")
5.71
>>> number("CN(C)CCCC(=O)Nc1ccc2c(c1)C(=O)c1cccc3ccnc-2c13")
5.36
>>> number("C[N+](C)(C)CC(=O)Nc1ccc2c(c1)C(=O)c1cccc3ccnc-2c13")
5.88
>>> number("CN(C)CC(=O)Nc1ccc2c(c1)C(=O)c1cccc3ccnc-2c13")
5.36

###

Listed below: log10 IC50 values for each entry.
biological target: UniProtKB Q9N1N9; experiment: Inhibition of equine serum BuChE
reported_property: log10 IC50 (log10 of the value in µM)

>>> number("CN(C)CCNCCC(=O)Nc1ccc2c(c1)C(=O)c1cccc3ccnc-2c13")
0.73
>>> number("O=C(CCCN1CCCC1)Nc1ccc2c(c1)C(=O)c1cccc3ccnc-2c13")
0.56
>>> number("Nc1ccc2c(c1)C(=O)c1cccc3ccnc-2c13")
2.00
>>> number("C[N+]1(CC(=O)Nc2ccc3c(c2)C(=O)c2cccc4ccnc-3c24)CCCC1")
0.23
>>> number("C[N+]1(CCC(=O)Nc2ccc3c(c2)C(=O)c2cccc4ccnc-3c24)CCCC1")
0.29
>>> number("CCN(CC)CCC(=O)Nc1ccc2c(c1)C(=O)c1cccc3ccnc-2c13")
0.78
>>> number("O=C(CN1CCCC1)Nc1ccc2c(c1)C(=O)c1cccc3ccnc-2c13")
0.54

###

Acetylcholinesterase (Electrophorus electricus, UniProt O42275) data, read-out pIC50
Sequence (O42275 whole entry): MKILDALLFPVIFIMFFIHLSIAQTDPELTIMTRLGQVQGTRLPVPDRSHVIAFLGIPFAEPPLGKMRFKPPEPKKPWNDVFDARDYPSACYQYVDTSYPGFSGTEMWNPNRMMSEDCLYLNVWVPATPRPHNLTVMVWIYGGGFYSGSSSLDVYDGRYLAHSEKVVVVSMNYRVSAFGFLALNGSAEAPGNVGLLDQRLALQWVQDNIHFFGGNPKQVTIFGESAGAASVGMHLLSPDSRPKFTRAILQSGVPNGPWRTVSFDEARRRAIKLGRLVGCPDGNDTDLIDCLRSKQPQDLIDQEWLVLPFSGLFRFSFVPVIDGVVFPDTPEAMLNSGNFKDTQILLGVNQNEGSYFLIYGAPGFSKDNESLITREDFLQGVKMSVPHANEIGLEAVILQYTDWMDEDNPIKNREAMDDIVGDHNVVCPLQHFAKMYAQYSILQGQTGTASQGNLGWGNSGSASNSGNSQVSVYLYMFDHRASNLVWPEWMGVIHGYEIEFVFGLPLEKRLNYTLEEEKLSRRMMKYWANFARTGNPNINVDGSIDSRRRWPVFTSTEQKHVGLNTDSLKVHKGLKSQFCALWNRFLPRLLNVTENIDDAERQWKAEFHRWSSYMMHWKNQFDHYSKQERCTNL
pIC50: −log10 of the molar value.
reported_property: pIC50

>>> number("C[N+]1(CCC(=O)Nc2ccc3c(c2)C(=O)c2cccc4ccnc-3c24)CCCC1")
8.97
>>> number("O=C(CCNCCO)Nc1ccc2c(c1)C(=O)c1cccc3ccnc-2c13")
7.26
>>> number("C[N+](C)(C)CCCC(=O)Nc1ccc2c(c1)C(=O)c1cccc3ccnc-2c13")
8.32
>>> number("CN(C)CC(=O)Nc1ccc2c(c1)C(=O)c1cccc3ccnc-2c13")
7.02
>>> number("C[N+]1(CC(=O)Nc2ccc3c(c2)C(=O)c2cccc4ccnc-3c24)CCCC1")
8.97
>>> number("C[N+]1(CCCC(=O)Nc2ccc3c(c2)C(=O)c2cccc4ccnc-3c24)CCCC1")
8.60
>>> number("O=C(CCN1CCCC1)Nc1ccc2c(c1)C(=O)c1cccc3ccnc-2c13")
8.61
>>> number("CC[N+](C)(CC)CCCC(=O)Nc1ccc2c(c1)C(=O)c1cccc3ccnc-2c13")
8.58
>>> number("CN(C)CCCC(=O)Nc1ccc2c(c1)C(=O)c1cccc3ccnc-2c13")
7.52
>>> number("Nc1ccc2c(c1)C(=O)c1cccc3ccnc-2c13")
4.57
>>> number("C[N+](C)(C)CC(=O)Nc1ccc2c(c1)C(=O)c1cccc3ccnc-2c13")
7.83
>>> number("O=C(CN1CCCC1)Nc1ccc2c(c1)C(=O)c1cccc3ccnc-2c13")
8.21

###

assay: Selectivity for electric eel AChE over equine serum BuChE
reported_property: Ratio IC50

>>> number("O=C(CN1CCCC1)Nc1ccc2c(c1)C(=O)c1cccc3ccnc-2c13")
560
>>> number("O=C(CCCN1CCCC1)Nc1ccc2c(c1)C(=O)c1cccc3ccnc-2c13")
300
>>> number("C[N+]1(CC(=O)Nc2ccc3c(c2)C(=O)c2cccc4ccnc-3c24)CCCC1")
1560
>>> number("C[N+]1(CCCC(=O)Nc2ccc3c(c2)C(=O)c2cccc4ccnc-3c24)CCCC1")
1290
>>> number("CCN(CC)CCC(=O)Nc1ccc2c(c1)C(=O)c1cccc3ccnc-2c13")
523
>>> number("O=C(CCNCCO)Nc1ccc2c(c1)C(=O)c1cccc3ccnc-2c13")
97
>>> number("CN(C)CCCC(=O)Nc1ccc2c(c1)C(=O)c1cccc3ccnc-2c13")
144
>>> number("CN(C)CC(=O)Nc1ccc2c(c1)C(=O)c1cccc3ccnc-2c13")
45
>>> number("C[N+]1(CCC(=O)Nc2ccc3c(c2)C(=O)c2cccc4ccnc-3c24)CCCC1")
1850
>>> number("O=C(CCN1CCCC1)Nc1ccc2c(c1)C(=O)c1cccc3ccnc-2c13")
980
>>> number("C[N+](C)(C)CC(=O)Nc1ccc2c(c1)C(=O)c1cccc3ccnc-2c13")
88
>>> number("CN(C)CCNCCC(=O)Nc1ccc2c(c1)C(=O)c1cccc3ccnc-2c13")
45
>>> number("C[N+](C)(C)CCCC(=O)Nc1ccc2c(c1)C(=O)c1cccc3ccnc-2c13")
490
>>> number("C[N+](C)(C)CCC(=O)Nc1ccc2c(c1)C(=O)c1cccc3ccnc-2c13")
590
>>> number("CN(C)CCC(=O)Nc1ccc2c(c1)C(=O)c1cccc3ccnc-2c13")
58
>>> number("CC[N+](C)(CC)CCCC(=O)Nc1ccc2c(c1)C(=O)c1cccc3ccnc-2c13")
1980

###

target: Butyrylcholinesterase (Equus caballus, UniProt Q9N1N9); assay: Inhibition of equine serum BuChE
reported_property: IC50 (nM)

>>> number("C[N+]1(CCCC(=O)Nc2ccc3c(c2)C(=O)c2cccc4ccnc-3c24)CCCC1")
3230
>>> number("C[N+](C)(C)CCC(=O)Nc1ccc2c(c1)C(=O)c1cccc3ccnc-2c13")
2820
>>> number("O=C(CCN1CCCC1)Nc1ccc2c(c1)C(=O)c1cccc3ccnc-2c13")
2410
>>> number("C[N+](C)(C)CCCC(=O)Nc1ccc2c(c1)C(=O)c1cccc3ccnc-2c13")
2370
>>> number("O=C(CCNCCO)Nc1ccc2c(c1)C(=O)c1cccc3ccnc-2c13")
5340
